Give pIC50 for every item shown.
biological target: PDK1 (Homo sapiens (Human), UniProt O15530); assay: PDK1 kinase assay (coupled PDK1/AKT/FAM-crosstide assay, IMAP fluorescence polarization); assay type: biochemical
Sequence (O15530 51-359): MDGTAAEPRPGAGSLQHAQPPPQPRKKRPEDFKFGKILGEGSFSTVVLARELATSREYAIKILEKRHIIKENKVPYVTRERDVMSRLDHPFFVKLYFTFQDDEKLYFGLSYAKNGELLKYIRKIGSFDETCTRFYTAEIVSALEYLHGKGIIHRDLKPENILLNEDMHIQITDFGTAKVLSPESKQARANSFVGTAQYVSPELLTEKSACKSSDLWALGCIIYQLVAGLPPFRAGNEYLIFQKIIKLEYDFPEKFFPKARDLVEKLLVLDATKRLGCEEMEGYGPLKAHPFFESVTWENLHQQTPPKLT
pIC50: −log10 of the molar value.

Tell me the measured pIC50 of COC(=O)C[C@@H](Nc1ncc(C#N)cc1C(=O)N[C@@H](C)c1ccc(F)cc1)c1ccc(-c2c[nH]c3ncnc(N)c23)cc1 [Example 44] , please.
> 7.00

Tell me the measured pIC50 of C[C@H](NC(=O)c1nc(C#N)cnc1NCc1ccc(-c2cnc(N)c(CCC3CCCNC3)n2)cc1)c1ccc(F)c(F)c1 (some centres unmarked) [Example 81] , please.
> 7.00

====

target: PDK1 (Homo sapiens (Human)); assay: PDK1 kinase assay (coupled PDK1/AKT/FAM-crosstide assay, IMAP fluorescence polarization); assay type: biochemical; conditions: inhibition of phospo-PDK1 in vitro
Structures can show the parent of a compound that is named as a salt.
Give IC50 for every item shown.

Tell me the measured IC50 of Nc1ncnc2ccc(-c3ccc(CNc4ncccc4C(=O)NCc4ccccn4)s3)cc12 [Example 3.25, (TFA salt)] , please.
1000 to 5000 nM

Tell me the measured IC50 of CC(C)Oc1cc(CNc2ncccc2C(=O)Nc2c(F)cccc2F)cc(-c2c[nH]c3ncc(C(=O)NC4CC4)cc23)c1 [Example 4.1.12] , please.
1000 to 5000 nM

Tell me the measured IC50 of O=C(NCc1ccc(F)c(F)c1)c1cccnc1NCc1ccc(-c2cnc3[nH]ccc3c2)s1 [Example 2.31] , please.
100 to 1000 nM

Tell me the measured IC50 of Nc1ncnc2ccc(-c3cccc(CNc4ncccc4C(=O)NCc4ccc(F)c(F)c4)c3)cc12 [Example 6.1] , please.
< 100 nM

Tell me the measured IC50 of O=C(NCc1ccc(C(F)(F)F)cc1)c1cccnc1NCc1ccc(-c2c[nH]c3ncccc23)s1 [Example 1.18] , please.
1000 to 5000 nM

Tell me the measured IC50 of Nc1ncnc2ccc(-c3ccc(CNc4nccc(C(F)(F)F)c4C(=O)NCc4ccc(F)c(F)c4)s3)cc12 [Example 8.12.4] , please.
> 5000 nM

Tell me the measured IC50 of C[C@H](NC(=O)c1cccnc1NCc1ccc(-c2ccc3ncnc(NC4COC4)c3c2)s1)c1ccc(F)c(F)c1 [Example 4.35] , please.
< 100 nM

Tell me the measured IC50 of Cn1cnc2cnc3ccc(-c4ccc(CNc5ncc(C(F)(F)F)cc5C(=O)NCc5ccc(F)c(F)c5)s4)cc3c21 [Example 2.26] , please.
< 100 nM

Tell me the measured IC50 of CNC(=O)c1cnc(NCc2ccc(-c3ccc4ncnc(N)c4c3)s2)c(C(=O)NCc2ccc(F)c(F)c2)c1 [Example 7.24.3] , please.
< 100 nM

Tell me the measured IC50 of Nc1n[nH]c2ncc(-c3ccc(CNc4ncc(C(F)(F)F)cc4C(=O)N4CCc5cc(F)ccc54)cc3)cc12 [Example 30] , please.
< 100 nM

Tell me the measured IC50 of C[C@H](NC(=O)c1cccnc1NCc1ccc(-c2cnc3[nH]ncc3c2)cc1)c1ccc(F)c(F)c1 [Example 2.39] , please.
< 100 nM

Tell me the measured IC50 of Nc1ncnc2ccc(-c3ccc(CNc4nc(Cl)cc5ncn(Cc6ccc(F)c(F)c6)c(=O)c45)s3)cc12 [Ex. 7.17] , please.
< 100 nM

Tell me the measured IC50 of CN(C)CCNC(=O)c1cnc(NCc2ccc(-c3ccc4ncnc(N)c4c3)s2)c(C(=O)NCc2ccc(F)c(F)c2)c1 [Example 7.24.2] , please.
100 to 1000 nM

Tell me the measured IC50 of C[C@H](NC(=O)c1cccnc1NCc1ccc(-c2cc3c(N)ncnc3cn2)s1)c1ccc(F)cc1 [Example 2.13.1] , please.
100 to 1000 nM
